Could you please report measured EC50 for the items listed next?
# tested-target: Ras GEF SOS (Son of Sevenless) (Homo sapiens)
# assay-notes: SOS-mediated nucleotide exchange on Ras (BODIPY-GDP fluorescence)
# measurement-context: SOS-mediated exchange of BODIPY-GDP for GTP on Ras
Structures can show the parent of a compound that is named as a salt.

Req: Item CC(C)c1ccccc1-c1cccc2c1nc(N1CCNCC1)n2Cc1ccc(C(F)(F)F)cc1 has what recorded EC50?
Resp: 1 to 5 µM

Req: # get_value(readout='EC50', item= Cc1cc(NC[C@H]2CCNC2)c2nc(N3CCNCC3)n(Cc3cc(C)c(F)c(C)c3)c2c1 [Example 198, trifluoroacetate] )
Resp: 1 to 5 µM

Req: Any idea what EC50 was measured for Cc1cc(-c2ccccc2F)c2nc(N3CCNCC3)n(Cc3ccc(F)c(Cl)c3)c2c1 [Example 119, trifluoroacetate] ?
Resp: 1 to 5 µM

Req: Need EC50 of Cc1cc(Cn2c(N3CCNCC3)nc3c(-c4ccccc4Cl)cc(Cl)cc32)cc(C)c1F , thanks.
Resp: 1 to 5 µM

Req: What measured EC50 goes with CC(C)CN1CC[C@@H](C(=O)c2ccccc2)[C@H]1c1cc(Cl)cc2c1nc(N1CCNCC1)n2Cc1ccc(F)c(Cl)c1 [Example 150, trifluoroacetate] ?
Resp: 5 to 30 µM

Req: So what does the record say about EC50 for Cc1cc(-c2ccc(CN)cc2)c2nc(N3CCNCC3)n(Cc3cc(C)c(F)c(C)c3)c2c1 ?
Resp: < 1 µM

Req: # get_value(readout='EC50', item= CCc1cc(Cn2c(N3CCNCC3)nc3cc(C)c(C)cc32)ccc1F [Example 50, trifluoroacetate] )
Resp: 1 to 5 µM

Req: EC50 lookup needed for Cc1cc(OCCN2CCN(C)CC2)c2nc(NCCN)n(Cc3cc(C)c(F)c(C)c3)c2c1 , thanks.
Resp: < 1 µM

Req: So what's the measured EC50 for this one? Cc1cc2nc(N)n(Cc3ccc(F)cc3)c2cc1C
Resp: 30 to 100 µM

Req: Need EC50 of Fc1ccc(Cn2cnc3ncccc32)cc1 , thanks.
Resp: 30 to 100 µM

Req: Reported EC50 for Fc1ccc(Cn2c(N3CCOCC3)nc3ccccc32)cc1Cl : what is it?
Resp: 30 to 100 µM

Req: Quick check: EC50 of Cc1cc2nc(NCCN(C)C)n(Cc3ccc(F)c(Cl)c3)c2cc1C [Example 28, trifluoroacetate] ?
Resp: 1 to 5 µM

Req: Any idea what its EC50 is? The compound is Cc1cc2nc(NCCN)n(Cc3cccc(C(F)(F)F)c3)c2cc1C [Example 33, trifluoroacetate]
Resp: 1 to 5 µM

Req: Record request: EC50 value, item Fc1ccc(CN2C3=NCCCN3c3cc(Cl)ccc32)cc1Cl
Resp: 30 to 100 µM

Req: May I ask what EC50 has been recorded for Cc1cc(OCCN(C)C)c2nc(N3CCNCC3)n(Cc3cc(C)c(F)c(C)c3)c2c1 ?
Resp: < 1 µM

Req: Need EC50 of Cc1cc(-c2cccc3c2nc(N2CCNCC2)n3Cc2ccc(F)c(Cl)c2)n(C)n1 , thanks.
Resp: 1 to 5 µM

Req: Name the recorded EC50 for Fc1ccc(Cn2c(N3CCNCC3)nc3c(-c4cccnc4)cccc32)cc1Cl .
Resp: 1 to 5 µM

* * *

# tested-target: Son of Sevenless (SOS) (Homo sapiens)
# Sequence (Q07889 564-1049 limits assumed): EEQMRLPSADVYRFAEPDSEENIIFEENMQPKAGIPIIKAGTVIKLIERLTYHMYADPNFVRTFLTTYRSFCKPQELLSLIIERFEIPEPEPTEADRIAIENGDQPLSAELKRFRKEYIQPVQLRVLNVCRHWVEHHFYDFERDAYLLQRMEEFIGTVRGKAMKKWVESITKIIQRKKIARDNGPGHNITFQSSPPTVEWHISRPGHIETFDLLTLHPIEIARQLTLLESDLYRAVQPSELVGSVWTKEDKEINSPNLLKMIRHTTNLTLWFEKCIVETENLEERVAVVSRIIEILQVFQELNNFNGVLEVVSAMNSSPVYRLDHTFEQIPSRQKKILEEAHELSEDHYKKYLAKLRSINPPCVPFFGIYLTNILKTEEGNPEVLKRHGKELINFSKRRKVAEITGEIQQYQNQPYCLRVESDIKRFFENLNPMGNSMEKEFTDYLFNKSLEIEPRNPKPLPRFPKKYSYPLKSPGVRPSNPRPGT
Structures can show the parent of a compound that is named as a salt.
readout-label: Ki

Req: I'm curious: which Ki was measured for NCCNCc1cc(Cl)cc2c1nc(N1CCNCC1)n2Cc1ccc(F)c(Cl)c1 [Example 137, trifluoroacetate] tested on Son of Sevenless (SOS) (Homo sapiens)?
Resp: 1 to 5 µM

Req: Lab note: need Ki for Cc1cc(Cn2c(N3CCNCC3)nc3c(-c4ccnn4-c4cccc5ccccc45)cc(Cl)cc32)cc(C)c1F [Example 177, trifluoroacetate] on Son of Sevenless (SOS) (Homo sapiens), anyone have it?
Resp: 1 to 5 µM

Req: # get_value(readout= Ki, system= Son of Sevenless (SOS) (Homo sapiens)) for Cc1cc2c(nc(NCCN)n2Cc2ccc(F)c(Cl)c2)c(-c2c(C)nn(C)c2C)c1C [Example 114, trifluoroacetate]
Resp: 1 to 5 µM

Req: Give recorded Ki with Son of Sevenless (SOS) (Homo sapiens) for the following compound: CCc1cc(Cn2c(NCCN)nc3c(-c4ccccc4Cl)c(C)c(C)cc32)ccc1Cl [Example 112, trifluoroacetate]
Resp: 1 to 5 µM

Req: What is its Ki for Son of Sevenless (SOS) (Homo sapiens)? Entry: CCNCc1c(C)c(C)cc2c1nc(NCCN)n2Cc1ccc(F)c(Cl)c1 [Example 147, trifluoroacetate]
Resp: 1 to 5 µM

Req: Could you share what Ki was measured for C=C[C@@H](N)c1cc(C)cc2c1nc(N1CCNCC1)n2Cc1cc(C)c(F)c(C)c1 [Example 163, trifluoroacetate] , tested on Son of Sevenless (SOS) (Homo sapiens)?
Resp: 0.5 to 1 µM

Req: Field: Ki (Son of Sevenless (SOS) (Homo sapiens)). Entry: Cc1cc(Cn2c(N3CCNCC3)nc3c(OCCN4CCN(C)CC4)cccc32)ccc1F
Resp: > 5 µM

Req: For the record Cc1cc2nc(NCCN)n(Cc3ccc(Cl)cc3)c2cc1C [Example 20, trifluoroacetate] , what value of Ki is listed for Son of Sevenless (SOS) (Homo sapiens)?
Resp: > 5 µM

Req: Form field - read-out: Ki; system: Son of Sevenless (SOS) (Homo sapiens); submitted item: Cc1cc(NCCCCN(C)C)c2nc(N3CCNCC3)n(Cc3cc(C)c(F)c(C)c3)c2c1 [Example 196, trifluoroacetate]
Resp: 0.5 to 1 µM

Req: For Son of Sevenless (SOS) (Homo sapiens), provide Ki of COCCN1CCN(c2cc(C)cc3c2nc(N2CCNCC2)n3Cc2cc(C)c(F)c(C)c2)CC1 [Example 195, trifluoroacetate] please.
Resp: 0.5 to 1 µM

Req: For Son of Sevenless (SOS) (Homo sapiens), provide Ki of Cc1cc2nc(NCCN)n(Cc3cccc(Br)c3)c2cc1C [Example 35, trifluoroacetate] please.
Resp: 1 to 5 µM

Req: Which measured Ki belongs to Cc1cc2nc(NCCN)n(Cc3cc(C)c(F)c(C)c3)c2cc1C [Example 42, trifluoroacetate] , tested on Son of Sevenless (SOS) (Homo sapiens)?
Resp: 1 to 5 µM

Req: // fetch Son of Sevenless (SOS) (Homo sapiens) Ki for Cc1cc(Cn2c(N3CCNCC3)nc3c(-c4c(C)cccc4C#Cc4ccccc4Cl)cc(Cl)cc32)cc(C)c1F [Example 184, trifluoroacetate]
Resp: 0.5 to 1 µM

* * *

# tested-target: UniProt Q07889
# Sequence (Q07889 564-1049 limits assumed): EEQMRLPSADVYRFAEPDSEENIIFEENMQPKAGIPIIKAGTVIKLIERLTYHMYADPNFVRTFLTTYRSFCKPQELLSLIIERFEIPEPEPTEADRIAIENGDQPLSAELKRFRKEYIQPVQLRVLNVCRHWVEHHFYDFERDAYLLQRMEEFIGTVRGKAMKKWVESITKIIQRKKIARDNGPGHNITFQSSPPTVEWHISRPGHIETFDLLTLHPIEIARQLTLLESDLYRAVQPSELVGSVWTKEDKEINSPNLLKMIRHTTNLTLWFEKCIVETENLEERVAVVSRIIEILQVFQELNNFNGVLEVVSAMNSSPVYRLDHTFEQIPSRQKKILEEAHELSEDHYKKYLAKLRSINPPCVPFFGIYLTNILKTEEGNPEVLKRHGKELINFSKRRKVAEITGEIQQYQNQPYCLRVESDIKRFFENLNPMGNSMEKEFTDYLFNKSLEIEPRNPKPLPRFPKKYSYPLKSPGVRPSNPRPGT
pKi: −log10 of the molar value. Where a name gives a salt, the structure may show the parent alone.
readout-label: pKi

Req: Form: Entry = Cc1cc2c(cc1Br)nc(N1CCNCC1)n2Cc1ccc(F)c(Cl)c1 [Example 70, trifluoroacetate] | System = UniProt Q07889 | pKi = ____
Resp: 5.30 to 6.00

Req: Item: Cc1cc(-c2cccc3c2nc(N2CCNCC2)n3Cc2ccc(F)c(Cl)c2)n(C)n1 [Example 93] Test system: UniProt Q07889 Read-out: pKi Value: ?
Resp: 5.30 to 6.00

Req: Please provide the recorded pKi for Cc1cc2c(nc(N3CCNCC3)n2Cc2ccc(Cl)cc2)c(-c2ccccc2)c1C [Example 105, trifluoroacetate] , tested on UniProt Q07889.
Resp: < 5.30

Req: Provide the documented pKi with UniProt Q07889 as the system for Cc1cc2c(nc(N3CCNCC3)n2Cc2ccc(F)c(C)c2)c(-c2ccccc2C)n1 [Example 225]
Resp: < 5.30

Req: Identify the measured pKi of CNCCN(C)c1nc2cc(C)c(C)cc2n1Cc1cc(C)c(F)c(C)c1 [Example 45, trifluoroacetate] for UniProt Q07889.
Resp: < 5.30

Req: Lab note: need pKi with UniProt Q07889 for entry Cc1cc2nc(N3CCNCC3)n(Cc3ccc(F)cc3)c2cc1C [Example 21, trifluoroacetate] , please look it up.
Resp: < 5.30

Req: Lab note: need pKi with UniProt Q07889 for entry Fc1ccc(Cn2c(N3CCNCC3)nc3ccccc32)cc1Cl [Example 7, trifluoroacetate] , please look it up.
Resp: < 5.30
